- assay: Tmax in CSBS-PD induced Sprague-Dawley rat at 15.28 mg/kg, po incubated for 24 hrs by LC-MS/MS analysis
- Format: ADME, organism-based
- experimental parameters: in vivo
measured property: Tmax

>>> obs_value("C[N+]1(C)CCC[C@H]1C(=O)[O-]")
"2.83 h"

----------
- assay: Tmax in Sprague-Dawley rat at 9.86 mg/kg, po by UPLC-MS/MS analysis
- Type: ADME, organism-based
- experimental parameters: in vivo
measured property: Tmax (h)

>>> obs_value("C[N+]1(C)CCC[C@H]1C(=O)[O-]")
1.5

----------
- assay: MRT (0 to infinity) in KYDS rat at 1 g/Kg, IG by LC-MS/MS analysis
- Format: ADME
- experimental parameters: in vivo, po, 1000 mg/kg
measured property: MRT inf (h)

>>> obs_value("C[N+]1(C)CCC[C@H]1C(=O)[O-]")
9.21

----------
- assay: MRT (0 to infinity) in Sprague-Dawley rat at 9.86 mg/kg, po by UPLC-MS/MS analysis
- Type: ADME, organism-based
- experimental parameters: in vivo
measured property: MRT inf

>>> obs_value("C[N+]1(C)CCC[C@H]1C(=O)[O-]")
"4.44 h"

----------
- assay: MRT (0 to infinity) in Wistar rat at 166.3 mg/kg, po
- Type: ADME, organism-based
- experimental parameters: in vivo
measured property: MRT inf (h)

>>> obs_value("C[N+]1(C)CCC[C@H]1C(=O)[O-]")
1.67

----------
- assay: AUC (0 to infinity) in Sprague-Dawley rat at 9.86 mg/kg, po by UPLC-MS/MS analysis
- Type: ADME, organism-based
- experimental parameters: in vivo
measured property: AUC(0-inf) (ng·h/mL)

>>> obs_value("C[N+]1(C)CCC[C@H]1C(=O)[O-]")
2800

----------
- assay: Half life in Sprague-Dawley rat at 15.28 mg/kg, po incubated for 24 hrs by LC-MS/MS analysis
- Type: ADME, organism-based
- experimental parameters: in vivo
measured property: half-life (h)

>>> obs_value("C[N+]1(C)CCC[C@H]1C(=O)[O-]")
3.89
